Can you tell me Mean NFκB response for the items I'm about to list?
System: NF-κB activity in HEK293 NF-κB reporter cells
Assay: NF-kB activity assay (GFP reporter, ionomycin/PMA)
Format: cell-based
Details: 1 µM, 12 h, n=3
Experimental: Fig. 6 Application of the NR3 CG set. After 24 h, cells were incubated with the test compounds solubilized with 0.1% DMSO in the same medium without puromycin. After 4 h incubation, ionomycin (100 ng/mL) and phorbol-12-myristat-13-acetate (PMA, 10 ng/mL) was added, and the cells were imaged for confluence and GFP expression every 90 min. over 24 h using a Tecan SPARK Cyto (Tecan). The number of GFP expressing cells was normalized to confluence in each sample. […]

**Q:** Given the molecule C[C@]12CC[C@@H]3c4ccc(O)cc4C[C@@H](CCCCCCCCC[S+]([O-])CCCC(F)(F)C(F)(F)F)[C@H]3[C@@H]1CC[C@@H]2O (stereo partly shown) [Fulvestrant] , what is its reported Mean NFκB response?
**A:** 7011.92 GFP+-cells/confluence ∙ 1000

**Q:** Further, for C[C@H]1C[C@H]2[C@@H]3CCC4=CC(=O)C=C[C@]4(C)[C@@]3(Cl)[C@@H](O)C[C@]2(C)[C@@]1(O)C(=O)CO [Beclomethasone] ?
**A:** 9507.58 GFP+-cells/confluence ∙ 1000

**Q:** Further, for COC(=O)[C@@H]1CC2=CC(=O)CC[C@]2(C)[C@@]23O[C@@H]2C[C@@]2(C)[C@@H](CC[C@@]24CCC(=O)O4)[C@H]13 [Eplerenone] ?
**A:** 20210.00 GFP+-cells/confluence ∙ 1000

**Q:** Further, for CC(=O)OCC(=O)[C@@]1(O)CC[C@H]2[C@@H]3CCC4=CC(=O)CC[C@]4(C)[C@@]3(F)[C@@H](O)C[C@@]21C [Fludrocortisone acetate] ?
**A:** 8806.82 GFP+-cells/confluence ∙ 1000

---

target: CDK2 (Homo sapiens, UniProt P24941); construct: made in house; experiment: Liability panel screening by DSF: CDK2; type: binding; conditions: DSF, 20 µM, n=2; read-out: Mean ΔTM CDK2
Endpoint label: ΔTm at 20 µM
Field: value (include unit after the number)

**Q:** Given the molecule Cc1ccc2c(NC[C@](O)(CC(C)(C)c3cc(F)cc4c3OCC4)C(F)(F)F)cccc2n1 , what is its reported ΔTm at 20 µM?
**A:** -0.17 °C

**Q:** Further, for COc1cc(/C=C(\C#N)C(=O)Nc2nnc(C(F)(F)F)s2)ccc1OCc1ccc(C(F)(F)F)cc1C(F)(F)F ?
**A:** 0.38 °C

**Q:** Further, for N#Cc1ccc(N2N=C3c4ccc(C(=O)O)cc4CC[C@@H]3[C@@H]2C2CCCC2)cc1Cl ?
**A:** -2.04 °C

**Q:** Further, for N#Cc1ccc([C@H]2CCCC[C@H]2O)cc1C(F)(F)F ?
**A:** 0.11 °C

**Q:** Further, for CC/C(=C(\c1ccc(O)cc1)c1ccc(OCCN(C)C)cc1)c1ccccc1 [(Z)-4-Hydroxytamoxifen] ?
**A:** -0.23 °C

**Q:** Further, for Oc1ccc(-c2c(-c3ccccc3)nn3c(C(F)(F)F)cc(C(F)(F)F)nc23)cc1 ?
**A:** 0.46 °C

**Q:** Further, for CC/C(=C(/c1ccc(/C=C/C(=O)O)cc1)c1ccc2[nH]ncc2c1)c1ccc(F)cc1Cl ?
**A:** -3.66 °C

**Q:** Further, for C[C@]12CC[C@@H]3c4ccc(O)cc4C[C@@H](CCCCCCCCC[S+]([O-])CCCC(F)(F)C(F)(F)F)[C@H]3[C@@H]1CC[C@@H]2O (stereo partly shown) ?
**A:** 0 °C

**Q:** Further, for CC(C)(c1ccc(O)cc1)c1ccc(O)cc1 ?
**A:** 1.16 °C

**Q:** Further, for CN(C)CCOc1ccc(/C(=C(/CCCO)c2ccccc2)c2ccc(O)cc2)cc1 ?
**A:** 0.68 °C
